assayed_system: dehydropeptidase-I (renal dipeptidase, EC 3.4.13.11) (Sus scrofa, UniProt P22412)
Construct: isolated from hog kidneys; from tissue; host or cells: hog kidney, solubilized and lyophilized enzyme preparation
Sequence (P22412 17-409): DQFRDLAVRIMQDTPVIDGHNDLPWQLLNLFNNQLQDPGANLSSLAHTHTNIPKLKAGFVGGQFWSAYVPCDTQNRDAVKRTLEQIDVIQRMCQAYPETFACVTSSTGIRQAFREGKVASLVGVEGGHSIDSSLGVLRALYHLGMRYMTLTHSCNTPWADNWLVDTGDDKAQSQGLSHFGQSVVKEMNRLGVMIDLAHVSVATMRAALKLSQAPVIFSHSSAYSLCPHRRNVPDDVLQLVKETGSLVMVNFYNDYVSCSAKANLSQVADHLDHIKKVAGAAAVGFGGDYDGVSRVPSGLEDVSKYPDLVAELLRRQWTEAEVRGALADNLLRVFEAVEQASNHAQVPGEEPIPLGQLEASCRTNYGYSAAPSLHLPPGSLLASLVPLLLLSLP
protocol: Renal dehydropeptidase I inhibition (hydrolysis of glycyldehydrophenylalanine)
Format: biochemical, hog
condition_notes: read-out: RENAL DEHYDROPEPTIDASE I INHIBITION Ki
Description: This measured the ability of compounds to inhibit hydrolysis of glycyldehydrophenylalanine (GDP) by a solubilized preparation of […] isolated from hog kidneys. […] Inhibition of the enzyme is gauged by comparison to a standard run containing no inhibitor and is expressed as the inhibitor binding constant, Ki.
pKi: −log10 of the molar value.
Hi, to clarify the labels: Fulfilled covers pKi from 8 upward, Not fulfilled covers anything below 8.

>  <compound>
C[C@@H](N)P(=O)(O)CC(CCCc1ccccc1)C(=O)O (some centres unmarked)

>  <label_class>
Not fulfilled

$$$$
>  <compound>
CCCCCC=C(CP(=O)(O)C(C)N)C(=O)O (racemic) [DL, R5 n-pentyl, (E, Z isomers)]

>  <label_class>
Fulfilled

$$$$
